Protocol Text: Neurotoxicity in ip dosed albino CF-1 mouse assessed as minimum motor impairment after 0.5 hrs by rotarod test
Assay type: toxicity, organism-based
Recorded Conditions: in vivo
Assay Metric: TD50 at 0.5 h

The molecule Fc1ccc(NC(=S)N/N=C/c2ccc(Oc3ccc(Cl)cc3)cc2)cc1 showed TD50 at 0.5 h equal to > 500 mg/kg

---

System: Mus musculus
Protocol Text: Anticonvulsant activity in albino CF-1 mouse assessed as protection against 6 Hz psychomotor seizure at 100 mg/kg, ip after 4 hrs by minimal clonic seizure test
Type: functional, organism-based
Design: dose 100 mg/kg
Calls of active or inactive are those of the source. No cut-off for these calls is given here.
Assay Metric: Activity

molecule_smiles=Fc1ccc(NC(=S)N/N=C/c2ccc(Oc3ccc(Br)cc3)cc2)cc1 observed_value=inactive
molecule_smiles=O=[N+]([O-])c1ccc(Oc2ccc(/C=N/NC(=S)Nc3ccc(F)cc3)cc2)cc1 observed_value=inactive
molecule_smiles=S=C(N/N=C/c1ccc(Oc2ccccc2)cc1)Nc1ccc(Br)cc1 observed_value=inactive
molecule_smiles=Cc1ccc(Oc2ccc(/C=N/NC(=S)Nc3ccc(Br)cc3)cc2)cc1 observed_value=inactive
molecule_smiles=Fc1ccc(NC(=S)N/N=C/c2ccc(Oc3ccccc3)cc2)cc1 observed_value=inactive
molecule_smiles=Cc1cc(Oc2ccc(/C=N/NC(=S)Nc3ccccc3)cc2)ccc1Cl observed_value=inactive

Lab note: each molecule below needs its Activity filled in.
1. Fc1ccc(Oc2ccc(/C=N/NC(=S)Nc3ccc(Cl)cc3)cc2)cc1
2. Cc1ccc(Oc2ccc(/C=N/NC(=S)Nc3ccc(F)cc3)cc2)cc1
3. Cc1cc(Oc2ccc(/C=N/NC(=S)Nc3ccc(F)cc3)cc2)ccc1Cl
4. S=C(N/N=C/c1ccc(Oc2ccc(Br)cc2)cc1)Nc1ccc(Br)cc1
5. Cc1cc(Oc2ccc(/C=N/NC(=S)Nc3ccc(Br)cc3)cc2)ccc1Cl

## Result
1: Active; 2: inactive; 3: inactive; 4: inactive; 5: inactive

Lab note: each molecule below needs its Activity filled in.
1. Fc1ccc(Oc2ccc(/C=N/NC(=S)Nc3ccccc3)cc2)cc1
2. S=C(N/N=C/c1ccc(Oc2ccc(Br)cc2)cc1)Nc1ccccc1
3. Cc1cc(Oc2ccc(/C=N/NC(=S)Nc3ccc(Cl)cc3)cc2)ccc1Cl
4. Fc1ccc(Oc2ccc(/C=N/NC(=S)Nc3ccc(Br)cc3)cc2)cc1
5. Fc1ccc(NC(=S)N/N=C/c2ccc(Oc3ccc(F)cc3)cc2)cc1

## Result
1: inactive; 2: inactive; 3: inactive; 4: inactive; 5: inactive

Lab note: each molecule below needs its Activity filled in.
1. Fc1ccc(NC(=S)N/N=C/c2ccc(Oc3ccc4ccccc4c3)cc2)cc1
2. Fc1ccc(NC(=S)N/N=C/c2ccc(Oc3ccc(Cl)cc3)cc2)cc1

## Result
1: Active; 2: Active
